// reported cytotoxicity at 70.5 h per item
experiment: Human HepG2 cell viability assay in 384 well format; type: toxicity, cell-based; parameters: dose 125 nL, time 70.5 hour; concentration not given beside the values; conditions: HepG2 cells, read-out: Inhibition
Observed Property: cytotoxicity at 70.5 h (%)

1) CN(C)C(=O)Cc1nc(CN2CCn3c(nnc3C3CC3)C2)cs1    -18.5
2) c1ccc2sc(CN3CCOC(Cn4cncn4)C3)nc2c1 (centres undefined)    -4.62
3) CN(C)C(=O)NC1COC2(CCN(C(=O)c3ccc(Cl)cc3)CC2)C1 (centres undefined)    -8.31
4) Cc1c[nH]c(CN(C)C(=O)[C@]23CNC[C@H]2CNC3)n1    -4.74
5) CN(C)CC1CSCCCN1C(=O)c1ccc(C(C)(C)C)cc1 (centres undefined)    -0.949
6) O=C(NCCc1ccn(-c2ccccc2)n1)N1CCC1    -2.97
7) CC(=O)c1ccccc1NC(=O)CCN1CCSCC1    6.67
8) Cc1nc(C)n(CC2CN(CCOc3ccc(C#N)cc3)CCO2)n1 (centres undefined)    -13.3
9) CC(O)CN1CCN(C(=O)c2sccc2C2CC2)CC1 (centres undefined)    -5.67
10) Cc1nc(CN2CCN(C(=O)CCc3cccc(Cl)c3)CC2)no1    13.5
11) CCC(C)(NC(=O)CCN1CCOC1=O)C(=O)OC (centres undefined)    20.8
12) NC(=O)Nc1cc(Br)cnc1OCC(F)(F)F    -7.02
13) COc1nccnc1N1CCN(Cc2ccc3c(c2)OCO3)C(=O)C1    20.7
14) CN(CC1COc2ccccc2O1)C(=O)c1ccc(-c2cn[nH]c2)nc1 (centres undefined)    -2.63
15) O=C(CCCOc1ccc(F)cc1F)N1CCCC(n2cccn2)C1 (centres undefined)    -3.24
16) Cc1ccc(CN2CC[C@H]3O[C@@H](C(=O)N4CCCO4)CC[C@H]32)s1    -4
17) Cc1cc(C)c(CN2CCCC23Cc2ccccc2CNC3=O)c(C)c1 (centres undefined)    -9.48
18) CCc1noc(CN(CC)C(=O)c2ccc3ncsc3c2)n1    4.54
19) CC(C)NC(=O)CCC(=O)N1CCC(c2noc3cc(F)ccc23)CC1    -17.2
